Entry source: patent US20080312157A1

# SYSTEM TESTED: T1, human GIP receptor (human), P48546
# T1 chain: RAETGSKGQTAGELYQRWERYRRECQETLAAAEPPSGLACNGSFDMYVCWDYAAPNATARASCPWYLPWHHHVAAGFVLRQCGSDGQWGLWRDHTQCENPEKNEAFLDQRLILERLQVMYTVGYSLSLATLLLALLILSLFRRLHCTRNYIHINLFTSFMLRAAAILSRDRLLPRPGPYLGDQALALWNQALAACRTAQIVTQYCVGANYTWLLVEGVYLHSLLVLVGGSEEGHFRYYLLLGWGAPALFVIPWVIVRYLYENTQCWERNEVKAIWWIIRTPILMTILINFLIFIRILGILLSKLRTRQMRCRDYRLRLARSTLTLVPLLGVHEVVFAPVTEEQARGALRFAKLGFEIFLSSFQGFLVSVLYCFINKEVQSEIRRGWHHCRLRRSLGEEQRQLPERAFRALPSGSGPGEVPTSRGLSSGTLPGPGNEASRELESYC
# ASSAY EXPLANATION: 125I-GIP displacement, 10 nM, HEK-GIPR
Response field label: string, one of MET (% Inh 10 nM strictly below 80%) or NOT MET.

Please review the following examples before continuing.
| BINDER | CATEGORY LABEL |
| --- | --- |
| HGEGTFISDYSIALDKIRQQEFVNWLLAQKPKKIRYS (modifications not checked) [0601GIP4842] | MET |
| YAEGTFISDYSIALDKIHQQDFVNWLLAQKPKKIRYS (modifications not checked) [0601GIP4807] | NOT MET |
| LYAEGTFISDYSIALDKIAQQEFVNWLLAQKPKKIRYS (modifications not checked) [0601GIP4802] | NOT MET |
| YAEGTFISDYSIAMDKIHQQDFVNPLLAQKPKKIRYS (modifications not checked) [0601GIP4770] | MET |
| HAEGTFISDYSIAMDKIHQQDFVNWLLAQKPKKIRYS (modifications not checked) [0601GIP4840] | MET |

Threshold test, % Inh 10 nM < 80%: YAEGTFISDYSIAMDKIHQQDFVNELLAQKPKKIRYS (modifications not checked) [0601GIP4769] MET

Threshold test, % Inh 10 nM < 80%: YAEGTFISDYSIAMDKIHQQDFVNWLLAQKPKAIRYS (modifications not checked) [0601GIP4816] NOT MET

Threshold test, % Inh 10 nM < 80%: YAEGTFISDYSIAMDKIHQQDFVNWLEAQKPKKIRYS (modifications not checked) [0601GIP4771] MET
